Reference source for all entries: the supplement of paper PMC11061612

System: G-401 (Other Solid Carcinomas)
PROCEDURE_SUMMARY: Bliss excess, mean over the matrix (fraction); higher = more synergy;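 also: after 72 h of two-drug dosing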
MEASURE_NAME: Bliss excess

COMPOUND	MEASURE_NAME	OBSERVED_RESULT
Cn1cnc2c(F)c(Nc3ccc(Br)cc3Cl)c(C(=O)NOCCO)cc21 [Selumetinib] + CCN(CCO)CCCOc1ccc2c(Nc3cc(CC(=O)Nc4cccc(F)c4)[nH]n3)ncnc2c1 [AZD2811] (first compound max 10 µM, 7x7, partner max 1 µM)	Bliss excess	0.0143
CC(=O)c1c(C)c2cnc(Nc3ccc(N4CCNCC4)cn3)nc2n(C2CCCC2)c1=O [Palbociclib] + CN(CC[C@H](CSC1=CC=CC=C1)NC2=C(C=C(C=C2)S(=O)(=O)NC(=O)C3=CC=C(C=C3)N4CCC(CC4)[C@H](C5=CC=CC=C5C6=CC=C(C=C6)Cl)O)S(=O)(=O)C(F)(F)F)CCO [AZD4320] (first compound max 10 µM, 7x7, partner max 1 µM)	Bliss excess	0.0091
CN(C)CCCOc1ccc(-c2ccc3ncc4c(c3c2)n(C2CCOCC2)c(=O)n4C)cn1 [AZD0156] + CCN(CCO)CCCOc1ccc2c(Nc3cc(CC(=O)Nc4cccc(F)c4)[nH]n3)ncnc2c1 [AZD2811] (first compound max 1 µM, 7x7, partner max 1 µM)	Bliss excess	-0.0279
C=CCn1c(=O)c2cnc(Nc3ccc(N4CCN(C)CC4)cc3)nc2n1-c1cccc(C(C)(C)O)n1 [AZD1775] + C[C@@H]1COCCN1C2=NC(=NC(=C2)C3(CC3)[S@](=N)(=O)C)C4=C5C=CNC5=NC=C4 [AZD6738] (first compound max 1 µM, partner max 10 µM)	Bliss excess	-0.0293

###

Tested on: EFO-21 (Ovarian Carcinoma)
PROCEDURE_SUMMARY: Bliss excess, mean over the matrix (fraction); higher = more synergy

COMPOUND	Bliss excess
Cn1cnc2c(F)c(Nc3ccc(Br)cc3Cl)c(C(=O)NOCCO)cc21 [Selumetinib] + C[C@@H]1COCCN1C2=NC(=NC(=C2)C3(CC3)[S@](=N)(=O)C)C4=C5C=CNC5=NC=C4 [AZD6738] (first compound max 10 µM, 7x7, partner max 10 µM)	-0.0192
COc1nnc2ccc(N3CCC(c4ccc(OCCN5CCN(C)C(=O)[C@H]5C)cc4)CC3)nn12 [AZD5153] + CC1(C)CCC(CN2CCN(c3ccc(C(=O)NS(=O)(=O)c4ccc(NCC5CCOCC5)c([N+](=O)[O-])c4)c(Oc4cnc5[nH]ccc5c4)c3)CC2)=C(c2ccc(Cl)cc2)C1 [Venetoclax] (first compound max 1 µM, 7x7, partner max 1 µM)	-0.0464
Cc1c2c(nn1C)CSCc1cc(n(C)n1)CSc1cc(c3ccccc3c1)OCCCc1c(C(=O)O)n(C)c3c-2c(Cl)ccc13 [AZD5991] + C=CCn1c(=O)c2cnc(Nc3ccc(N4CCN(C)CC4)cc3)nc2n1-c1cccc(C(C)(C)O)n1 [AZD1775] (first compound max 1 µM, partner max 1 µM)	0.0177

###

Test system: MOG-G-UVW (Low Grade Glioma)
PROCEDURE_SUMMARY: Bliss excess, mean over the matrix (fraction); higher = more synergy
# Bliss excess annotations
MEASURE_NAME: Bliss excess

COMPOUND	OBSERVED_RESULT
CC(=O)c1c(C)c2cnc(Nc3ccc(N4CCNCC4)cn3)nc2n(C2CCCC2)c1=O [Palbociclib] + Cn1cnc2c(F)c(Nc3ccc(Br)cc3Cl)c(C(=O)NOCCO)cc21 [Selumetinib] (first compound max 10 µM, 7x7, partner max 10 µM)	0.0912
C[C@@H]1COCCN1c1cc(C2([S@](C)(=N)=O)CC2)nc(-c2ccnc3[nH]ccc23)n1 [AZD6738] + C1CC(C1)(C(=O)[O-])C(=O)[O-].N.N.[Pt+2] [Carboplatin] (first compound max 10 µM, 7x7, partner max 10 µM)	-0.0044
C[C@@H](c1ccc2nccn2c1)n1nnc2ncc(-c3cnn(C)c3)nc21 [Savolitinib] + CC1(C)CCC(CN2CCN(c3ccc(C(=O)NS(=O)(=O)c4ccc(NCC5CCOCC5)c([N+](=O)[O-])c4)c(Oc4cnc5[nH]ccc5c4)c3)CC2)=C(c2ccc(Cl)cc2)C1 [Venetoclax] (first compound max 1 µM, 7x7, partner max 1 µM)	0.0069
NC1(C(=O)N[C@@H](CCO)c2ccc(Cl)cc2)CCN(c2ncnc3[nH]ccc23)CC1 [Capivasertib] + C[C@@H]1COCCN1C2=NC(=NC(=C2)C3(CC3)[S@](=N)(=O)C)C4=C5C=CNC5=NC=C4 [AZD6738] (first compound max 10 µM, 7x7, partner max 10 µM)	-0.0348
O=C(c1cc(Cc2n[nH]c(=O)c3ccccc23)ccc1F)N1CCN(C(=O)C2CC2)CC1 [Olaparib] + Cc1c2c(nn1C)CSCc1cc(n(C)n1)CSc1cc(c3ccccc3c1)OCCCc1c(C(=O)O)n(C)c3c-2c(Cl)ccc13 [AZD5991] (first compound max 10 µM, 7x7, partner max 1 µM)	-0.0125
C[C@@H](Nc1cc(F)cc(F)c1)c1cc(C(=O)N(C)C)cc2c(=O)cc(N3CCOCC3)oc12 [AZD8186] + C1CN(CCC1(C(=O)N[C@@H](CCO)C2=CC=C(C=C2)Cl)N)C3=NC=NC4=C3C=CN4 [AZD5363] (first compound max 10 µM, 7x7, partner max 10 µM)	-0.0364
CC1(C)CCC(CN2CCN(c3ccc(C(=O)NS(=O)(=O)c4ccc(NCC5CCOCC5)c([N+](=O)[O-])c4)c(Oc4cnc5[nH]ccc5c4)c3)CC2)=C(c2ccc(Cl)cc2)C1 [Venetoclax] + C[C@@H](Nc1cc(F)cc(F)c1)c1cc(C(=O)N(C)C)cc2c(=O)cc(N3CCOCC3)oc12 [AZD8186] (first compound max 1 µM, 7x7, partner max 3 µM)	-0.0111
O=C(c1cc(Cc2n[nH]c(=O)c3ccccc23)ccc1F)N1CCN(C(=O)C2CC2)CC1 [Olaparib] + COc1nnc2ccc(N3CCC(c4ccc(OCCN5CCN(C)C(=O)[C@H]5C)cc4)CC3)nn12 [AZD5153] (first compound max 10 µM, 7x7, partner max 1 µM)	-0.0406
NC1(C(=O)N[C@@H](CCO)c2ccc(Cl)cc2)CCN(c2ncnc3[nH]ccc23)CC1 [Capivasertib] + CC(=O)c1c(C)c2cnc(Nc3ccc(N4CCNCC4)cn3)nc2n(C2CCCC2)c1=O [Palbociclib] (first compound max 10 µM, 7x7, partner max 10 µM)	0.0666

###

Test system: A4-Fuk (B-Lymphoblastic Leukemia)
PROCEDURE_SUMMARY: Bliss excess, mean over the matrix (fraction); higher = more synergy

COMPOUND	Bliss excess
COc1nnc2ccc(N3CCC(c4ccc(OCCN5CCN(C)C(=O)[C@H]5C)cc4)CC3)nn12 [AZD5153] + CC1(C)CCC(CN2CCN(c3ccc(C(=O)NS(=O)(=O)c4ccc(NCC5CCOCC5)c([N+](=O)[O-])c4)c(Oc4cnc5[nH]ccc5c4)c3)CC2)=C(c2ccc(Cl)cc2)C1 [Venetoclax] (first compound max 1 µM, 7x7, partner max 1 µM)	-0.0678
C[C@@H](c1ccc2nccn2c1)n1nnc2ncc(-c3cnn(C)c3)nc21 [Savolitinib] + CC1(C)CCC(CN2CCN(c3ccc(C(=O)NS(=O)(=O)c4ccc(NCC5CCOCC5)c([N+](=O)[O-])c4)c(Oc4cnc5[nH]ccc5c4)c3)CC2)=C(c2ccc(Cl)cc2)C1 [Venetoclax] (first compound max 1 µM, 7x7, partner max 1 µM)	-0.0269
CN(CCO)CC[C@H](CSc1ccccc1)Nc1ccc(S(=O)(=O)NC(=O)c2ccc(N3CCC([C@@H](O)c4ccccc4-c4ccc(Cl)cc4)CC3)cc2)cc1S(=O)(=O)C(F)(F)F [AZD4320] + C[C@@H]1COCCN1C2=NC(=NC(=C2)C3(CC3)[S@](=N)(=O)C)C4=C5C=CNC5=NC=C4 [AZD6738] (first compound max 1 µM, 7x7, partner max 10 µM)	-0.0169

###

Tested on: ME-180 (Cervical Carcinoma)
PROCEDURE_SUMMARY: Bliss excess, mean over the matrix (fraction); higher = more synergy

COMPOUND	Bliss excess
CC(=O)c1c(C)c2cnc(Nc3ccc(N4CCNCC4)cn3)nc2n(C2CCCC2)c1=O [Palbociclib] + Cc1c2c(nn1C)CSCc1cc(n(C)n1)CSc1cc(c3ccccc3c1)OCCCc1c(C(=O)O)n(C)c3c-2c(Cl)ccc13 [AZD5991] (first compound max 10 µM, 7x7, partner max 1 µM)	-0.0545
COc1nnc2ccc(N3CCC(c4ccc(OCCN5CCN(C)C(=O)[C@H]5C)cc4)CC3)nn12 [AZD5153] + CC1(C)CCC(CN2CCN(c3ccc(C(=O)NS(=O)(=O)c4ccc(NCC5CCOCC5)c([N+](=O)[O-])c4)c(Oc4cnc5[nH]ccc5c4)c3)CC2)=C(c2ccc(Cl)cc2)C1 [Venetoclax] (first compound max 1 µM, 7x7, partner max 1 µM)	-0.0515
O=C(c1cc(Cc2n[nH]c(=O)c3ccccc23)ccc1F)N1CCN(C(=O)C2CC2)CC1 [Olaparib] + Cc1c2c(nn1C)CSCc1cc(n(C)n1)CSc1cc(c3ccccc3c1)OCCCc1c(C(=O)O)n(C)c3c-2c(Cl)ccc13 [AZD5991] (first compound max 10 µM, 7x7, partner max 1 µM)	-0.0363
CN(CCO)CC[C@H](CSc1ccccc1)Nc1ccc(S(=O)(=O)NC(=O)c2ccc(N3CCC([C@@H](O)c4ccccc4-c4ccc(Cl)cc4)CC3)cc2)cc1S(=O)(=O)C(F)(F)F [AZD4320] + C[C@@H](Nc1cc(F)cc(F)c1)c1cc(C(=O)N(C)C)cc2c(=O)cc(N3CCOCC3)oc12 [AZD8186] (first compound max 1 µM, 7x7, partner max 3 µM)	-0.0137
COc1nnc2ccc(N3CCC(c4ccc(OCCN5CCN(C)C(=O)[C@H]5C)cc4)CC3)nn12 [AZD5153] + CCN(CCO)CCCOc1ccc2c(Nc3cc(CC(=O)Nc4cccc(F)c4)[nH]n3)ncnc2c1 [AZD2811] (first compound max 1 µM, 7x7, partner max 1 µM)	-0.0644
Cc1c2c(nn1C)CSCc1cc(n(C)n1)CSc1cc(c3ccccc3c1)OCCCc1c(C(=O)O)n(C)c3c-2c(Cl)ccc13 [AZD5991] + C[C@@H]1COCCN1C2=NC(=NC(=C2)C3(CC3)[S@](=N)(=O)C)C4=C5C=CNC5=NC=C4 [AZD6738] (first compound max 1 µM, 7x7, partner max 10 µM)	0.0329
CN(C)CCCOc1ccc(-c2ccc3ncc4c(c3c2)n(C2CCOCC2)c(=O)n4C)cn1 [AZD0156] + CCN(CCO)CCCOc1ccc2c(Nc3cc(CC(=O)Nc4cccc(F)c4)[nH]n3)ncnc2c1 [AZD2811] (first compound max 1 µM, 7x7, partner max 1 µM)	-0.0143
CN(CCO)CC[C@H](CSc1ccccc1)Nc1ccc(S(=O)(=O)NC(=O)c2ccc(N3CCC([C@@H](O)c4ccccc4-c4ccc(Cl)cc4)CC3)cc2)cc1S(=O)(=O)C(F)(F)F [AZD4320] + C=CCn1c(=O)c2cnc(Nc3ccc(N4CCN(C)CC4)cc3)nc2n1-c1cccc(C(C)(C)O)n1 [AZD1775] (first compound max 1 µM, partner max 1 µM)	-0.0304
CCc1c2c(nc3ccc(O)cc13)-c1cc3c(c(=O)n1C2)COC(=O)[C@]3(O)CC [SN-38] + CN(C)CCCOc1ccc(-c2ccc3ncc4c(c3c2)n(C2CCOCC2)c(=O)n4C)cn1 [AZD0156] (first compound max 0.3 µM, 7x7, partner max 1 µM)	-0.0259
CS(=O)(=O)CCNCc1ccc(-c2ccc3ncnc(Nc4ccc(OCc5cccc(F)c5)c(Cl)c4)c3c2)o1 [Lapatinib] + Cn1cnc2c(F)c(Nc3ccc(Br)cc3Cl)c(C(=O)NOCCO)cc21 [Selumetinib] (first compound max 10 µM, 7x7, partner max 10 µM)	-0.028
C[C@@H]1COCCN1c1cc(C2([S@](C)(=N)=O)CC2)nc(-c2ccnc3[nH]ccc23)n1 [AZD6738] + Nc1ccn([C@@H]2O[C@H](CO)[C@@H](O)C2(F)F)c(=O)n1 [Gemcitabine] (first compound max 10 µM, 7x7, partner max 0.3 µM)	0.0564
CN(C)CCCOc1ccc(-c2ccc3ncc4c(c3c2)n(C2CCOCC2)c(=O)n4C)cn1 [AZD0156] + C=CCn1c(=O)c2cnc(Nc3ccc(N4CCN(C)CC4)cc3)nc2n1-c1cccc(C(C)(C)O)n1 [AZD1775] (first compound max 1 µM, partner max 1 µM)	-0.0787
Cc1c2c(nn1C)CSCc1cc(n(C)n1)CSc1cc(c3ccccc3c1)OCCCc1c(C(=O)O)n(C)c3c-2c(Cl)ccc13 [AZD5991] + C[C@@H](Nc1cc(F)cc(F)c1)c1cc(C(=O)N(C)C)cc2c(=O)cc(N3CCOCC3)oc12 [AZD8186] (first compound max 1 µM, 7x7, partner max 3 µM)	-0.0244
